biological target: Hydroxycarboxylic acid receptor 1 (Homo sapiens); assay: Agonist activity at human GPR81 overexpressed in CHO cells assessed as inhibition of forskolin-stimulated cAMP production at 10 uM relative to control; format: functional, cell-based
Sequence (Q9BXC0 whole entry): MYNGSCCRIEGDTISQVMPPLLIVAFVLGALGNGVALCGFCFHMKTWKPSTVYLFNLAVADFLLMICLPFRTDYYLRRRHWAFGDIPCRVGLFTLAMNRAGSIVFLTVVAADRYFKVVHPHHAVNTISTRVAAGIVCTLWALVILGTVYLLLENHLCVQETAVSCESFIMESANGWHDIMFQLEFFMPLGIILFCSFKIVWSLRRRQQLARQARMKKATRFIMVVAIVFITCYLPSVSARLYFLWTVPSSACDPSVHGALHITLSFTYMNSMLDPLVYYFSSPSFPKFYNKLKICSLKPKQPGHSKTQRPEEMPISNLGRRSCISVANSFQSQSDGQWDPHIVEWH
ATTRIBUTE_MEASURED: Efficacy (%)
I only need the number, in %, no unit after it.

Find the recorded Efficacy belonging to CN1CCC(S(=O)(=O)c2ccc3nc(NC(=O)NC(=O)c4cc(-n5cccn5)c(F)cc4Cl)sc3c2)CC1 and report it.
70

Would you kindly repeat that for CCOc1ccc(C(=O)NC(=O)Nc2nc3ccc(CN4CCN(C)CC4)cc3s2)cc1N1CCOCC1 ?
47

How about this molecule: Cc1cc(Cl)c(C(=O)NC(=O)Nc2nc3ccc(S(=O)(=O)C4CCN(C)CC4)cc3s2)cc1-n1cccn1
70

Would you mind doing CN1CCC(S(=O)(=O)c2ccc3nc(NC(=O)NC(=O)c4cc(-n5cccn5)ccc4Cl)sc3c2)CC1 as well?
74

* * *

experiment: Solubility of compound; assay type: physicochemical
ATTRIBUTE_MEASURED: solubility
Remember to follow the number with its unit.

# get_value(readout='solubility', item= CCOc1cc(Cl)c(NC(=O)Nc2nc3ccc(CN4CCN(C)CC4)cc3s2)cc1N1CCOCC1 )
20 µM

Then this compound: CCOc1cc(Cl)c(CNC(=O)Nc2nc3ccc(CN4CCN(C)CC4)cc3s2)cc1N1CCOCC1
188 µM

CCOc1cc(Cl)c(-c2ccc(-c3nc4c(s3)CN(C(=O)COC)CC4)c(=O)[nH]2)cc1N1CCOCC1 ?
29 µM

Queued: CCOc1cc(Cl)c(C(=O)NC(=O)Nc2nc3ccc(CN4CCN(C)CC4)cc3s2)cc1N1CCOCC1
4 µM

* * *

experiment: Distribution coefficient, logD of compound at pH 7.4; type: physicochemical; details: octanol/water
ATTRIBUTE_MEASURED: logD
No unit in the answer, only the number.

Report logD for CCOc1cc(Cl)c(C(=O)Nc2nc3ccc(OC4CCN(C)CC4)cc3s2)cc1N1CCOCC1 please.
2.9

What about CCOc1cc(Cl)c(C(=O)Nc2nc3ccc(S(=O)(=O)CCCN4CCN(C)CC4)cc3s2)cc1N1CCOCC1 ?
2

Further, for CCOc1cc(Cl)c(-c2ccc(-c3nc4ccc(S(=O)(=O)C5CCN(C)CC5)cc4s3)c(=O)[nH]2)cc1N1CCOCC1 ?
3.4

And CCOc1cc(Cl)c(C(=O)NC(=O)Nc2nc3c(s2)CN(C(=O)CO)CC3)cc1N1CCOCC1 ?
1.7

Check CN1CCC(S(=O)(=O)c2ccc3nc(NC(=O)NC(=O)c4cc(-n5cccn5)ccc4Cl)sc3c2)CC1 too.
2.3

Now consider CCOc1cc(Cl)c(C(=O)N(C)C(=O)Nc2nc3ccc(CN4CCN(C)CC4)cc3s2)cc1N1CCOCC1 .
2.5

Now try CCOc1cc(Cl)c(C(=O)Nc2nc3ccc(S(=O)(=O)C4CCN(C)CC4)cc3s2)cc1N1CCOCC1 .
2.5

Entry CCOc1cc(Cl)c(CNC(=O)Nc2nc3ccc(CN4CCN(C)CC4)cc3s2)cc1N1CCOCC1 please
3.2

Same read-out for CCOc1cc(Cl)c(C(=O)NC(=O)Nc2ncc(-c3ccccc3)s2)cc1N1CCOCC1 ?
4.2

Moving on to CCOc1cc(Cl)c(C(=O)NC(=O)Nc2nc3ccc(CN4CCN(C)CC4)cc3s2)cc1-n1cccn1
3.8

// query: CCOc1cc(Cl)c(-c2ccc(-c3nc4c(s3)CN(C(=O)CO)CC4)c(=O)[nH]2)cc1N1CCOCC1
2.4

Again, but for Cc1cc(Cl)c(C(=O)NC(=O)Nc2nc3ccc(S(=O)(=O)C4CCN(C)CC4)cc3s2)cc1-n1cccn1
2.5

Another: CCOc1cc(Cl)c(C(=O)Nc2nc3ccccc3s2)cc1N1CCOCC1
4.3

Also CCOc1cc(Cl)c(C(=O)NC(=O)Nc2nc3ccccc3s2)cc1N1CCOCC1 , if possible.
4

Okay, and CN1CCC(S(=O)(=O)c2ccc3nc(NC(=O)NC(=O)c4cc(-n5cccn5)c(F)cc4Cl)sc3c2)CC1 ?
2.4

Next compound up: CCOc1cc(Cl)c(C(=O)NC(=O)Nc2cc3ccccc3s2)cc1N1CCOCC1
4.4

Same again, this time with CCOc1cc(Cl)c(C(=O)NC(=O)Nc2nc3ccc(CN4CCN(C)CC4)cc3s2)cc1N1CCO[C@H](C)C1
3.3

And then CCOc1cc(Cl)c(C(=O)NC(=O)Nc2nc3ccc(S(=O)(=O)C4CCN(C)CC4)cc3s2)cc1-n1cccn1 , what is it?
3

Moving on to CCOc1cc(Cl)c(C(=O)Nc2nc3ccc(S(=O)(=O)CCCN4CCN(C)CC4)cc3s2)cc1N1CCO[C@H](C)C1
2.4

Same question, CCOc1cc(Cl)c(-c2ncc(-c3nc4ccccc4s3)c(=O)[nH]2)cc1N1CCOCC1 this time
3.9

// query: CCOc1cc(Cl)c(C(=O)NC(=O)Nc2nc3ccc(CN4CCN(C)CC4)cc3s2)cc1-n1cccc1
4

Now give it for CCOc1cc(Cl)c(C(=O)NC(=O)Nc2nc3c(s2)CN(C(C)=O)CC3)cc1N1CCOCC1 too.
2.3

Repeat with CCOc1cc(Cl)c(C(=O)NC(=O)Nc2nc3ccc(S(=O)(=O)C4CCN(C)CC4)cc3s2)cc1N1CCOCC1
2.2

Further, for CCOc1cc(Cl)c(C(=O)Nc2nc3ccc(CN4CCN(C)CC4)cc3s2)cc1N1CCOCC1 ?
2.8

Same again, this time with CCOc1ccc(C(=O)NC(=O)Nc2nc3ccc(CN4CCN(C)CC4)cc3s2)cc1N1CCOCC1
3

What would you report for CCOc1cc(C(F)(F)F)c(C(=O)NC(=O)Nc2nc3ccc(CN4CCN(C)CC4)cc3s2)cc1N1CCOCC1 ?
3.3

What would you report for CCOc1cc(Cl)c(C(=O)NC(=O)Nc2nc3ccc(CN4CCN(C)CC4)cc3s2)cc1N1CCOCC1 ?
2.9

Repeat with CCOc1cc(Cl)c(C(=O)NC(=O)Nc2ncc(C)s2)cc1N1CCOCC1
3.2

Can you check CCOc1cc(Cl)c(-c2ccc(-c3nc4c(s3)CN(C(=O)COC)CC4)c(=O)[nH]2)cc1N1CCOCC1 next?
2.6

Cool, now CCOc1ccc(C(=O)NC(=O)Nc2nc3ccc(CN4CCN(C)CC4)cc3s2)c(Cl)c1
3.4

Lookup CCOc1cc(Cl)c(C(=O)NC(=O)Nc2nc3ccc(CN4CCN(C)CC4)cc3s2)cc1N1CCCC1
4

Please give the result for CCOc1cc(C)c(C(=O)NC(=O)Nc2nc3ccc(CN4CCN(C)CC4)cc3s2)cc1N1CCOCC1 too.
2.9

Consider next the compound CCOc1cc(Cl)c(C(=O)Nc2nc3ccc(S(=O)(=O)CCCN4CCN(C)CC4)cc3s2)cc1N1C[C@H](C)O[C@@H](C)C1 in the same way.
3
